Would you kindly list remaining at 9 h, 1 μM for each of these sequences?
biological target: DPPIV (Homo sapiens, UniProt P27487); experiment: In vitro plasma stability (kinetic test method), GLP-1 (active) ELISA; conditions: human, 10% human plasma, pH 7.8
Sequence (P27487 whole entry): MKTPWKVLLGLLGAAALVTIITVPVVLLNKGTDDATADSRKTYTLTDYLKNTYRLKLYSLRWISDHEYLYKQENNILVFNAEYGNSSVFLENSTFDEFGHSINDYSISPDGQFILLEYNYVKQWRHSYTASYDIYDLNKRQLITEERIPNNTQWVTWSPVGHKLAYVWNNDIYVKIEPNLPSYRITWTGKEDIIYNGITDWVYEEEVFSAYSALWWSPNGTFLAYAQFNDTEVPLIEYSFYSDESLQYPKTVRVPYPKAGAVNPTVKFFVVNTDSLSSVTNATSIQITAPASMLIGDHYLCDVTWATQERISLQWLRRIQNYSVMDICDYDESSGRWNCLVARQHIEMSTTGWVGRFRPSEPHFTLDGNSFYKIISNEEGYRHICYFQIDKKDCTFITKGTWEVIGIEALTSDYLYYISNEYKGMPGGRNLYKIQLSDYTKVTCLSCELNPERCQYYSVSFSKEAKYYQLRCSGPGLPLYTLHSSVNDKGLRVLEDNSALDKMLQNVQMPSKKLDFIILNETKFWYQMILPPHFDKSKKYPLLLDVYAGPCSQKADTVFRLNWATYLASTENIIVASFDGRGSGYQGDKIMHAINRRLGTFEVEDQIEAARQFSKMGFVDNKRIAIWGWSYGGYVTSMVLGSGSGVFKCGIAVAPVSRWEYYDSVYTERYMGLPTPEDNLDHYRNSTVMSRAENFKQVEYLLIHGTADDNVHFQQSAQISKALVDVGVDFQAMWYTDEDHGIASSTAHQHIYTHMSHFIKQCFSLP
Ends that are not written are not given here.

Kindly give each listed record's remaining at 9 h, 1 μM.
1. HAEGTFTSDVSSYLEGQAAKEFIAWLVKGRGAADFPEEVAIAEELG [CM3-ANA01]
2. HAEGTFTSDVSSYLEGQAAKEFIAWLVKGRGRRDFPEEVAIAEELG [CM3]

Ans.
["84%", "63%"]
